- System: K562 (chronic myelogenous leukaemia)
- protocolDetails: Effect of compounds on tumor cell lines (assay of Latham et al.), K562
- Assay type: cell-based
- cond: Table 1; K562 cells, examined 96 hours after treatment, 1 μM to 100 μM in DMSO; read-out: K 562 potency (IC50)
quantityMeasured: IC50

Any idea what IC50 came out for Cc1ccc(SC(=Cc2c(O)cc(O)cc2O)C(=O)c2ccc(Br)cc2)cc1 [Example 67] on K562 (chronic myelogenous leukaemia)?
50 to 100 µM

Any idea what IC50 came out for Cc1ccc(SC(=Cc2ccc(Br)cc2)C(=O)c2ccc(Cl)cc2)cc1 [Example 88] on K562 (chronic myelogenous leukaemia)?
50 to 100 µM

Any idea what IC50 came out for Cc1ccc(SC(=Cc2ccc(Cl)cc2Cl)C(=O)c2ccc(Cl)cc2)cc1 [Example 71] on K562 (chronic myelogenous leukaemia)?
25 to 50 µM

Any idea what IC50 came out for COc1ccc(SC(=Cc2ccccc2OCc2ccccc2)C(=O)c2ccc(Cl)cc2)cc1 [Example 62] on K562 (chronic myelogenous leukaemia)?
1 to 10 µM

Any idea what IC50 came out for Cc1ccc(C=C(Sc2ccc(F)cc2)C(=O)c2ccc(Cl)cc2)s1 [Example 60] on K562 (chronic myelogenous leukaemia)?
25 to 50 µM

Any idea what IC50 came out for COc1ccc2[nH]cc(C=C(Sc3ccc(Br)cc3)C(=O)c3ccc(Br)cc3)c2c1 [Example 52] on K562 (chronic myelogenous leukaemia)?
1 to 10 µM

Any idea what IC50 came out for COc1ccc(SC(=Cc2ccc(C)s2)C(=O)c2ccc(Cl)cc2)cc1 [Example 64] on K562 (chronic myelogenous leukaemia)?
50 to 100 µM

Any idea what IC50 came out for Cc1ccc(SC(=Cc2sccc2C)C(=O)c2ccc(Br)cc2)cc1 [Example 82] on K562 (chronic myelogenous leukaemia)?
50 to 100 µM

Any idea what IC50 came out for Cc1ccc(SC(=Cc2ccc(Cl)cc2)C(=O)c2ccc(Cl)cc2)cc1 [Example 91] on K562 (chronic myelogenous leukaemia)?
1 to 10 µM

Any idea what IC50 came out for Cc1ccc(SC(=Cc2ccc(C)s2)C(=O)c2ccc(Br)cc2)cc1 [Example 109] on K562 (chronic myelogenous leukaemia)?
50 to 100 µM

Any idea what IC50 came out for CC(=O)c1ccc(C=C(Sc2ccc(C)cc2)C(=O)c2ccc(Br)cc2)cc1 [Example 87] on K562 (chronic myelogenous leukaemia)?
50 to 100 µM

Any idea what IC50 came out for O=C(O)c1cc(C=C(Sc2ccc(Br)cc2)C(=O)c2c(F)c(F)c(F)c(F)c2F)ccc1O [Example 28] on K562 (chronic myelogenous leukaemia)?
25 to 50 µM

Any idea what IC50 came out for COc1ccccc1C=C(Sc1ccc(Br)cc1)C(=O)c1ccc(Cl)cc1 [Example 25] on K562 (chronic myelogenous leukaemia)?
10 to 25 µM

Any idea what IC50 came out for Cc1ccc(SC(=Cc2ccc(F)c(C)c2)C(=O)c2ccc(Br)cc2)cc1 [Example 95] on K562 (chronic myelogenous leukaemia)?
1 to 10 µM

Any idea what IC50 came out for Cc1ccc(SC(=Cc2cc([N+](=O)[O-])ccc2F)C(=O)c2ccc(Cl)cc2)cc1 [Example 74] on K562 (chronic myelogenous leukaemia)?
1 to 10 µM
